test: Formation of 1,5-cz-[Ln(Lig)] from Lig and Ln^III ions (metal dependent click-zip), MOPS/NaOH buffer pH 7.0, analytical HPLC (Charts 1, 2); details: Sm^III; after 1 hour at 80° C.; MOPS/NaOH buffer pH 7.0
The threshold is inclusive: conversion to 1,5-cz-[Ln(Lig)], Sm^III of exactly 1% counts as t; values below receive f.

C#Cc1cccc(CN2CCN(CP(=O)(O)OCC)CCN(Cc3cccc(CN=[N+]=[N-])n3)CCN(CP(=O)(O)OCC)CC2)n1 :: t

Task: Textbook exercise: given the entry `C#CCNC(=O)CN1CCN(CC(=O)O)CCN(Cc2cc(-c3ccccc3)cc(CN=[N+]=[N-])n2)CCN(CC(=O)O)CC1` , state whether its conversion to 1,5-cz-[Ln(Lig)], Sm^III is greater than or equal to 1%.
Output: f

Task: Textbook exercise: given the entry `[N-]=[N+]=NCc1cccc(CN2CCN(CC(=O)O)CCN(Cc3cccc(C#CC4CC4)n3)CCN(CC(=O)O)CC2)n1` , state whether its conversion to 1,5-cz-[Ln(Lig)], Sm^III is greater than or equal to 1%.
Output: f

Task: Textbook exercise: given the entry `C#Cc1cccc(CN2CCN(CC(=O)O)CCN(Cc3cc(-c4ccc(C(=O)O)cc4)cc(CN=[N+]=[N-])n3)CCN(CC(=O)O)CC2)n1` , state whether its conversion to 1,5-cz-[Ln(Lig)], Sm^III is greater than or equal to 1%.
Output: t

Task: Textbook exercise: given the entry `C#Cc1cccc(CN2CCN(CC(=O)O)CCN(Cc3cc(C(=O)OC(C)C)cc(CN=[N+]=[N-])n3)CCN(CC(=O)O)CC2)n1` , state whether its conversion to 1,5-cz-[Ln(Lig)], Sm^III is greater than or equal to 1%.
Output: t

Task: Textbook exercise: given the entry `C#Cc1cccc(CN2CCN(CC(=O)NCC(=O)O)CCN(Cc3cc(-c4ccccc4)cc(CN=[N+]=[N-])n3)CCN(CC(=O)NCC(=O)O)CC2)n1` , state whether its conversion to 1,5-cz-[Ln(Lig)], Sm^III is greater than or equal to 1%.
Output: t

Task: Textbook exercise: given the entry `C#Cc1cccc(CN2CCN(CC(=O)O)CCN(Cc3cccc(CN=[N+]=[N-])n3)CCN(CC(=O)O)CC2)n1` , state whether its conversion to 1,5-cz-[Ln(Lig)], Sm^III is greater than or equal to 1%.
Output: t

* * *

test: Dissociation of chelates in aq. 0.1M HCl at 80° C. (acid decomplexation kinetic inertness) (Chart 19); format: physicochemical; settings: 1 month
Form field: fraction of intact chelate (one value per entry).

Example entries and their recorded answers appear below.
O=C1C[N@@]2CC[N@]3CC[N@@](CC[N@](CC2)Cc2cccc(n2)-c2cnnn2Cc2cc(-c4ccccc4)cc(n2)C3)CC(=O)[O][Cd][O]1 [TD880] :: 100%
O=C1C[N@@]2CC[N@]3CC[N@@](CC[N@](CC2)Cc2cccc(n2)-c2cnnn2Cc2cc(-c4ccccc4)cc(n2)C3)CC(=O)[O][La][O]1 [TD651] :: 0%

O=C1C[N@@]2CC[N@]3CC[N@@](CC[N@](CC2)Cc2cccc(n2)-c2cn(nn2)Cc2cc(-c4ccccc4)cc(n2)C3)CC(=O)[O][Gd][O]1 [TD875] has a reported fraction of intact chelate of 0%
